Data provenance: patent US8962664B2

- experiment-description: Eight-month repeat dose toxicology study in rats: hematology (CBC) and serum chemistry
- Format: in vivo, Sprague-Dawley rats
- assay-conditions: rat, in vivo, po, 100 mg/kg/day
measurement-label: Anion Gap (mM)
Express it in mM; write the number only.

The compound identified as CCCC1=N[C@@H]2[C@@H](O)[C@H](O)[C@@H](CO)O[C@@H]2S1 [NAG-Bt] registered its Anion Gap at 29.8
